- Tested on: Wolbachia pipientis
- procedure_text: Anti-Wolbachia Cell-Based Screen
- Assay type: functional
- Design: scale not given: in the data most compounds retested in dose-response had high values
- experimental_parameters: 5 µM
Among all 48,000 compounds or so, about 13,000 (27%) showed an effect of 50% or more. The list shows a part of the results.

compound | units_of_measure | Percent Effect
COCCN(C)C[C@@H]1CN(C(=O)c2ccc(OC)c(F)c2)C[C@@H]1CO | % | 94.27
NCc1cn(CC2CCCN(C(=O)NCc3ccc(Cl)cc3)C2)nn1 (centres undefined) | % | -34.24
CN(CC(=O)N(C)C)Cc1ccc(C#N)cc1F | % | -6.679
Fc1cccc(Oc2ccc(CNCC3CNc4ccnn4C3)cn2)c1 (centres undefined) | % | 5.815
COCCNC(=O)[C@H]1C[C@@H]2CCN(c3ccncn3)C[C@H]2O1.O=C(O)C(F)(F)F | % | 90.71
OCCN(Cc1cccnc1)c1ncc(Br)cn1 | % | -8.725
CS(=O)(=O)CCN1CCC(=Cc2ccccc2)CC1 | % | 3.303
COC(=O)CNC(=O)C1(N(C)Cc2ccccc2)Cc2ccccc2C1 | % | -5.057
O=C(NCc1nnc2n1CCCCC2)N1CCc2sccc2C1 | % | 8.039
COC(=O)c1ccoc1CN(C)Cc1cc(OC)c(OC)cc1C | % | 109.7
c1cc2n(n1)CC(CNCc1ccc(OCC3CC3)nc1)CN2 (centres undefined) | % | 1.128
Fc1ccc(Oc2ccc(CNCC3CNc4ccnn4C3)cn2)cc1 (centres undefined) | % | 99.62
NS(=O)(=O)CCNC(=O)C1(c2ccc(Br)cc2)CC1 | % | -1.628
COCCN(Cc1c(C)nn(C)c1C)C(=O)C1COc2ccccc2C1 (centres undefined) | % | -13.07
CN(Cc1ccccc1)CC(C)(C)NC(=O)c1ccon1 | % | 7.047
COc1ccc(CNC[C@H]2Cn3ccnc3CO2)cn1 | % | -7.877
O=C(NC(CC(F)(F)F)c1ccc(Cl)cc1)c1nc(=O)[nH][nH]1 (centres undefined) | % | -2.983
O=C(NCCNCC1CNc2ccnn2C1)c1ccc(F)cc1 (centres undefined) | % | -19.45
COCCN(C)C[C@@H]1CN(C(=O)c2ccc3c(c2)OCO3)C[C@@H]1CO | % | 100.3
COc1cccc(-c2noc(-c3ccc(N4CC(N)C4)nc3)n2)c1OC | % | 0.2823
O=C(c1ccc2c(c1)OCO2)N1C[C@@H](CN2CCCCC2)[C@@H](CO)C1 | % | -23.85
CC1Cc2ccccc2N1Cc1occc1C(=O)NCC(=O)N(C)C (centres undefined) | % | -8.438
COCCNC(=O)[C@H]1C[C@@H]2CCN(CCc3ccccc3)C[C@@H]2O1.O=C(O)C(F)(F)F | % | -51.54
CN(C)CC1(O)CCCN(c2nc(-c3ccccc3)no2)CC1 (centres undefined) | % | -0.08727
Cc1ccc(CNCc2cccc3cccnc23)c(OC2CCOC2)c1 (centres undefined) | % | -38.45
c1ccc(Oc2ccc(CNCC3CNc4ccnn4C3)cn2)cc1 (centres undefined) | % | 117.1
COCCNC(=O)[C@H]1C[C@@H]2CCN(CCc3ccccc3)C[C@H]2O1.O=C(O)C(F)(F)F | % | 28.03
O=C(NCc1cccnc1)[C@H]1C[C@@H]2CCN(c3ccncn3)C[C@H]2O1.O=C(O)C(F)(F)F.O=C(O)C(F)(F)F | % | 98.22
CNc1cc(C)nc(NCc2cc(C)cc3c(C)c(C)[nH]c23)n1 | % | 13.77
